- Test system: SF-268
- assay_details: NCI tumour cell line growth inhibition, 48 h
Active and inactive are the calls of the source. No stated cut-off is given here; in the data, active = GI50 up to about 1.1 µM and inactive = higher.
metric_name: GI50

O=C1C=CC2(C=C1)CCC(=O)O2 : 12.1 µM (inactive)
C=C1[C@@H]2CCC(C)(C)[C@H]1CCC(=O)[C@@H]2C(=O)OC : > 100 µM (inactive)
CC12c3c4cc(Br)cc3Oc3cc(Br)cc(c31)Oc1cc(Br)cc(c12)O4 : 10.5 µM (inactive)
CCCCCOP(=O)(OCCCCC)C(NC(C)=O)(C(=O)OCC)C(F)(F)F (stereo not given) : > 100 µM (inactive)
c1ccc2cc(CN3CCC(C4CCN(Cc5ccc6ccccc6c5)CC4)CC3)ccc2c1 : 8.53 µM (inactive)

Given the molecule COc1ccc(-c2c3c(nc4nc(SCCc5ccccc5)nc(N)c24)CCCC3)cc1OC , what is its reported GI50? > 100 µM (inactive)

Also, CC1C(c2ccccc2)N(C)C(c2ccccc2)C(C)C1(O)c1ccccc1 (stereo not given) please. > 100 µM (inactive)

Also, CC(=O)CC(=O)c1cc2c(=O)oc(C)cc2oc1=O please. > 37.5 µM (inactive)

Also, CNC(=O)OCC1=C(COC(=O)NC)CN(c2ccccc2)C1 please. > 100 µM (inactive)

Also, CC12C=CC(=O)C=C1CCC1C3CCC(O)(C(=O)CO)C3(C)CC(O)C12F (stereo not given) please. > 100 µM (inactive)
